Each recorded value in this set is attributed to patent US12642870B2.

Test: Particle size and PDI of hand-mixed mRNA or DNA LNPs
Format: physicochemical
Conditions: hand-mixed mRNA LNPs: compound/DOPE/Cholesterol/DMG-PEG2000 41.44/45.85/10/2.7, lipid:RNA 40:1
# Particle Size (nm) RNA annotations
// return numeric value only (unit: nm, not printed)

Past entries and their recorded results:
compound	units	Particle Size (nm) RNA
CC(C)C(CCC1CCC(C(=O)OCCCCCCSCCCCCCCCSCCCCCCOC(=O)C2CCC(CCC(SCCN(C)C)C(C)C)C(SCCN(C)C)C2)CC1SCCN(C)C)SCCN(C)C (stereo not drawn) [Compound 21]	nm	144.9
CC(C)C(CCC(C)C(CCC1CCC(C(=O)OCCCCCCCCCCCCOC(=O)C2CCC(CCC(SCCN(C)C)C(C)CCC(SCCN(C)C)C(C)C)C(SCCN(C)C)C2)CC1SCCN(C)C)SCCN(C)C)SCCN(C)C (stereo not drawn) [Compound 11]	nm	270.4

Please look at the following compound next.
Data request: Consider the compound CC(C)C(CCC1CCC(C(=O)OCCCCCCOC(=O)C2CCC(CCC(SCCN(C)C)C(C)C)C(SCCN(C)C)C2)CC1SCCN(C)C)SCCN(C)C (stereo not drawn) [Compound 14] and give its measured Particle Size (nm) RNA.
Data returned: 222.5

====

# Diameter (NTA; nm) annotations
Assay: Physical characterisation of DNA-containing LNPs (DLS, NTA, zeta potential)
Type: physicochemical
Settings: nano-pB-EF1a-GFP DNA LNPs: compound/DOPE/Cholesterol/DMG-PEG2000 38.0/50.0/10.0/2.0, lipid:DNA 45:1 (w/w)
// return numeric value only (unit: nm, not printed)

Past entries and their recorded results:
compound	Diameter (NTA; nm)
CC(C)C(CCC(C)C(CCC1CCC(C(=O)NCCCCCCNC(=O)C2CCC(CCC(SCCN(C)C)C(C)CCC(SCCN(C)C)C(C)C)C(SCCN(C)C)C2)CC1SCCN(C)C)SCCN(C)C)SCCN(C)C (stereo not shown) [Compound 1]	96.9
CC(C)C(CCC1CCC(C(=O)NCCCCCCNC(=O)C2CCC(CCC(SCCN(C)C)C(C)C)C(SCCN(C)C)C2)CC1SCCN(C)C)SCCN(C)C (stereo not shown) [Compound 2]	105.0
CC(C)C(CCC(C)C(CCC1CCC(C(=O)NC2CCC(CC3CCC(NC(=O)C4CCC(CCC(SCCN(C)C)C(C)CCC(SCCN(C)C)C(C)C)C(SCCN(C)C)C4)CC3)CC2)CC1SCCN(C)C)SCCN(C)C)SCCN(C)C (stereo not shown) [Compound 5]	85.8

Data request: Consider the compound CC(C)C(CCC(C)C(CCC1CC2C(=O)N(c3ccc(N4C(=O)C5CC(CCC(SCCN(C)C)C(C)CCC(SCCN(C)C)C(C)C)C(SCCN(C)C)CC5C4=O)cc3)C(=O)C2CC1SCCN(C)C)SCCN(C)C)SCCN(C)C (stereo not shown) [Compound 7] and give its measured Diameter (NTA; nm).
Data returned: 90.8

====

Test: Physical characterisation of mRNA-containing LNPs (DLS, NTA, zeta potential)
Assay type: physicochemical
Settings: Fluc mRNA LNPs: compound/DOPE/Cholesterol/DMG-PEG2000 41.44/45.85/10/2.7, lipid:RNA 40:1 (w/w)
# PDI annotations
Enter the number alone.

Past entries and their recorded results:
compound	value_kind	assay_result
CC(C)C(CCC(C)C(CCC1CCC(C(=O)NC2CCC(CC3CCC(NC(=O)C4CCC(CCC(SCCN(C)C)C(C)CCC(SCCN(C)C)C(C)C)C(SCCN(C)C)C4)CC3)CC2)CC1SCCN(C)C)SCCN(C)C)SCCN(C)C (stereo not shown)	PDI	0.389
CC(C)C(CCC1CCC(C(=O)NCCCCCCNC(=O)C2CCC(CCC(SCCN(C)C)C(C)C)C(SCCN(C)C)C2)CC1SCCN(C)C)SCCN(C)C (stereo not shown)	PDI	0.259
CC(C)C(CCC(C)C(CCC1CC2C(=O)N(c3ccc(N4C(=O)C5CC(CCC(SCCN(C)C)C(C)CCC(SCCN(C)C)C(C)C)C(SCCN(C)C)CC5C4=O)cc3)C(=O)C2CC1SCCN(C)C)SCCN(C)C)SCCN(C)C (stereo not shown)	PDI	0.113

Please look at the following compound next.
Data request: Consider the compound CC(C)C(CCC(C)C(CCC1CCC(C(=O)NCCCCCCNC(=O)C2CCC(CCC(SCCN(C)C)C(C)CCC(SCCN(C)C)C(C)C)C(SCCN(C)C)C2)CC1SCCN(C)C)SCCN(C)C)SCCN(C)C (stereo not shown) and give its measured PDI.
Data returned: 0.174
